B1: CPEB3 Ribozyme (parent)
chain: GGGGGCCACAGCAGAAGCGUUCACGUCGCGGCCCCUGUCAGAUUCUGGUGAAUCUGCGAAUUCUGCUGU

Variants of: B1
TEST_PROTOCOL: self-cleavage, relative activity (ratio to wild type); higher = more cleavage; co-transcriptional
READOUT_NAME: self-cleavage

GGGGGUCACAGCAGAAGCGUUCACGUCGCGGCCCCUGUCAGAUUCUUGUGAAUCUGCGAAUUCUGCUGU : 1.02
GGGGGCCACAUCAGAAGCGUUCACGUCGCGGCCCCUGUCAGAUUCUGGUGAAUCUUCGAAUUCUGCUGU : 0.404
GGGGGCCACAGCAGUAGCGUUCACGUCGCGGCCCCUGUCAGAUUCUGGUGAAUCUGCGAAUGCUGCUGU : 0.991
GGGGGCCACAGCAGAAGUGUUCACGUCGCGGCCCCUGACAGAUUCUGGUGAAUCUGCGAAUUCUGCUGU : 0.671
GGGGGCCACAGCAGAAGCGUUCACGUCGCGGCCCCUGUCAGAUUCUGGUGAAUGUGCGAAUUCUUCUGU : 0.587
GGGGGCCACAGCAGAAGCGUUCACGUCGCGGCCUCUGUCAGAUUCUGGUGAACCUGCGAAUUCUGCUGU : 0.943
GGGGGCCACAGCAGAAGCGUUCACGUCGCGGCCCCUGUCAGAGUCUGGUGAAUCUGCGUAUUCUGCUGU : 0.566
GGGGGCCACAGCAGAAGCGUUCACGUCGCGGCCCCUGUCAGAUUCUGGUGAAACUGCGAAUUCUGUUGU : 0.911
GGGGGCCCCAGCAGAAGCGUUCACGUCGCGGCCCCUGUCUGAUUCUGGUGAAUCUGCGAAUUCUGCUGU : 0.868
GGGGGCCACAGCAGAAGCGUUCACGUCGCGGCCCCUGUCAGAUUCCGGUGAAUCUGCGAUUUCUGCUGU : 0.472
GGGGGCCACUGCAGAAGCGAUCACGUCGCGGCCCCUGUCAGAUUCUGGUGAAUCUGCGAAUUCUGCUGU : 0.122
GGGCGCCACAGCAGAAGCGUUCACGUCGCGGCCCCUGUCAGAUUCUGGUGAAUCUGCGAUUUCUGCUGU : 0.174

Entry source: the RNAGym collection of RNA variant scans (doi:10.7554/elife.80360)
